subject.of.test: MMP13 (Homo sapiens, UniProt P45452)
assay.summary: Inhibition of human MMP13 assessed as residual activity using Mca-PLGL-(DapDnp)-AR-NH2 as substrate at 200 uM by fluorescence assay relative to control
condition.label: human MMP13 enzyme, probe Mca-PLGL-(DapDnp)-AR-NH2, read-out: Activity
Please respond with reported activity at 200 µM for every item in the list.
Answer format: numeric, % implied, no suffix.

Q: Given "COc1ccc(CN(CC(=O)NO)Cc2cccc(C(=O)O)c2)cc1" , state its recorded activity at 200 µM.
A: 94

Q: Given "O=C(CN(Cc1cccc(C(=O)O)c1)Cc1cccc(C(=O)O)c1)NO" , state its recorded activity at 200 µM.
A: 78

Q: Given "O=C(CN(Cc1ccc(Cl)c(O)c1F)Cc1ccc(Cl)c(O)c1F)NO" , state its recorded activity at 200 µM.
A: 93

Q: Given "O=C(CN(Cc1ccc(Cl)cc1)Cc1cccc(C(=O)O)c1)NO" , state its recorded activity at 200 µM.
A: 78

Q: Given "O=C(CN(Cc1ccc(F)c(O)c1F)Cc1ccc(F)c(O)c1F)NO" , state its recorded activity at 200 µM.
A: 102

###

Please respond with reported Tmax for every item in the list.
assay.summary: Tmax in Sprague-Dawley rat at 10 mg/kg, po by LC-MS analysis
Assay type: ADME, organism-based
condition.label: in vivo
Include the unit after the number when you answer.

Q: Given "O=C(CN(Cc1ccc(Cl)c(O)c1F)Cc1ccc(Cl)c(O)c1F)NO" , state its recorded Tmax.
A: 15 min

Q: Given "O=C(CN(Cc1ccc(F)c(O)c1F)Cc1ccc(F)c(O)c1F)NO" , state its recorded Tmax.
A: 7.8 min

###

Please respond with reported clearance for every item in the list.
assay.summary: Clearance in Sprague-Dawley rat at 6 mg/kg, iv by LC-MS analysis
Format: ADME, organism-based
condition.label: in vivo
Answer format: numeric, mL/min/kg implied, no suffix.

Q: Given "O=C(CN(Cc1ccc(Cl)c(O)c1F)Cc1ccc(Cl)c(O)c1F)NO" , state its recorded clearance.
A: 21

Q: Given "O=C(CN(Cc1ccc(F)c(O)c1F)Cc1ccc(F)c(O)c1F)NO" , state its recorded clearance.
A: 21.8

Q: Given "O=C(CN(Cc1cccc(C(=O)O)c1)Cc1cccc(C(=O)O)c1)NO" , state its recorded clearance.
A: 29.7

###

subject.of.test: CYP3A4 (Homo sapiens)
Sequence (P08684 whole entry): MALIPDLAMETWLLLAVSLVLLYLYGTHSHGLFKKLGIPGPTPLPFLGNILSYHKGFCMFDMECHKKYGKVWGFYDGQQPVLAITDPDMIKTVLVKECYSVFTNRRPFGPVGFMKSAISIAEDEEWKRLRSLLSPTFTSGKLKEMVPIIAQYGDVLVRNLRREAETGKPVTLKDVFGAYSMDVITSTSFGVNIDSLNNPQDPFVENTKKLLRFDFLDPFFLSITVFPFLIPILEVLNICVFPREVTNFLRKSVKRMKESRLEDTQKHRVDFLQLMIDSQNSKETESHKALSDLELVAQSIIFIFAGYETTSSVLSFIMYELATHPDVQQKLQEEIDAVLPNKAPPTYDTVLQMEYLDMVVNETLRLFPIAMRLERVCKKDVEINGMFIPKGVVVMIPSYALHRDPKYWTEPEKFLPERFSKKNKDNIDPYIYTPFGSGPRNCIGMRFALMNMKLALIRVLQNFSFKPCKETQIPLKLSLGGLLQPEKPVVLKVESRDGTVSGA
assay.summary: Inhibition of recombinant human CYP3A4 expressed in baculosomes assessed as residual activity at 25 uM using BOMCC substrate by fluorescence assay relative to control
Assay type: ADME
condition.label: probe BOMCC, read-out: Activity
Rule: Criterion met for activity at 25 µM not less than 80%, Criterion not met for anything less.

Q: Could you verify whether the entry "O=C(CN(Cc1ccc(Cl)c(O)c1F)Cc1ccc(Cl)c(O)c1F)NO" shows activity at 25 µM of no less than 80%?
A: Criterion not met

Q: Could you verify whether the entry "O=C(CN(Cc1ccc(F)c(O)c1F)Cc1ccc(F)c(O)c1F)NO" shows activity at 25 µM of no less than 80%?
A: Criterion met

Q: Could you verify whether the entry "O=C(CN(Cc1cccc(C(=O)O)c1)Cc1cccc(C(=O)O)c1)NO" shows activity at 25 µM of no less than 80%?
A: Criterion met

###

subject.of.test: ADAM10 (Homo sapiens, UniProt O14672)
Sequence (O14672 whole entry): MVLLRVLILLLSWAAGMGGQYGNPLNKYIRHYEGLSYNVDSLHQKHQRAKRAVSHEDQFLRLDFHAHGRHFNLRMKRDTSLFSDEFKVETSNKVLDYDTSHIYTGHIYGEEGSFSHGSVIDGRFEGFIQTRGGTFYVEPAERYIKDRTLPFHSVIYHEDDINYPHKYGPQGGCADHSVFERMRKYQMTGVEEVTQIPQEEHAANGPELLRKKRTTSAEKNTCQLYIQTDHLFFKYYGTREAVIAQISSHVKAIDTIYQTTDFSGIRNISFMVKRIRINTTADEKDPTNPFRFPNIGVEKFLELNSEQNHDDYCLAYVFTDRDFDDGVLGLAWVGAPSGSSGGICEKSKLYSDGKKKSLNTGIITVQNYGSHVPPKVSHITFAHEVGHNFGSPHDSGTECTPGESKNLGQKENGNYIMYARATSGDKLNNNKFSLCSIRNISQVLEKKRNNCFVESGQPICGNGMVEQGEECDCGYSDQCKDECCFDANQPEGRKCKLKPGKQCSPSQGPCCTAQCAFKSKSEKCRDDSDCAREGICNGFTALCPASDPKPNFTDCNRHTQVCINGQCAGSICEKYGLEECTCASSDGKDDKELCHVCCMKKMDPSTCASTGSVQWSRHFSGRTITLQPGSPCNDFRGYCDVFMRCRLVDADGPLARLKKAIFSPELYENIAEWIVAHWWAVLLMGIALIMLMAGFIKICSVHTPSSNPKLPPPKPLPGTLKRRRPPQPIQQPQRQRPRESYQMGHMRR
assay.summary: Inhibition of human ADAM10 assessed as residual activity using Abz-LANAVRSSSR-(DapDnp)-AR-NH2 as substrate at 200 uM by fluorescence assay relative to control
condition.label: human ADAM10 enzyme, probe Abz-LANAVRSSSR-(DapDnp)-AR-NH2, read-out: Activity
observable: activity at 200 µM (%)
Answer format: numeric, % implied, no suffix.

Q: Given "COc1ccc(CN(CC(=O)NO)Cc2cccc(C(=O)O)c2)cc1" , state its recorded activity at 200 µM.
A: 87

Q: Given "O=C(CN(Cc1cccc(C(=O)O)c1)Cc1cccc(C(=O)O)c1)NO" , state its recorded activity at 200 µM.
A: 93

Q: Given "O=C(CN(Cc1ccc(F)c(O)c1F)Cc1ccc(F)c(O)c1F)NO" , state its recorded activity at 200 µM.
A: 99

Q: Given "O=C(CN(Cc1ccc(Cl)c(O)c1F)Cc1ccc(Cl)c(O)c1F)NO" , state its recorded activity at 200 µM.
A: 97

Q: Given "O=C(CN(Cc1ccc(Cl)cc1)Cc1cccc(C(=O)O)c1)NO" , state its recorded activity at 200 µM.
A: 95
